assay info: AUC in rat at 1 mg/kg, po
Type: ADME, organism-based
protocol conditions: in vivo
Parameter: AUC. Scope: all listed entries.
Give a bare numeral; the unit ng·h/mL is implied.

// below: answered compounds
compound: CCn1c(=O)n(CC2CC2)c(=O)c2cc(NC(=O)CC(C)CC(=O)Nc3ccc(C#N)c(Cl)c3)ccc21 (racemic)
test readout: AUC
units label: ng·h/mL
result value: 10

compound: CCn1c(=O)c2cc(NC(=O)CC(C)CC(=O)Nc3ccc(C#N)c(Cl)c3)ccc2n(CC2CC2)c1=O (racemic)
test readout: AUC
units label: ng·h/mL
result value: 33

compound: CC(CC(=O)Nc1ccc(C#N)c(Cl)c1)CC(=O)Nc1ccc2c(c1)c(=O)n(CC1CC1)c(=O)n2CC1CC1 (racemic)
test readout: AUC
units label: ng·h/mL
result value: 106

Request: AUC lookup needed for CCn1c(=O)c2cc(NC(=O)CC(C)CC(=O)Nc3ccc(C#N)c(Cl)c3)ccc2n(CC)c1=O (racemic) , thanks.
Result: 39
